Entry source: patent US20130059879A1

Test protocol: Solubility in solvents and excipients, 1 hour at room temperature, HPLC
Assay type: physicochemical
Settings: organic solvent or mixture, thermodynamic from solid; Cremophor, 1 hour at room temperature; read-out: Solubility Cremophor
Observed property: solubility at 1 h (mg/mL)

>  <Compound>
COc1cc(C(=O)c2cc3c(cc(F)c4ccccc43)[nH]2)ccc1O [ACT-PFK-119]

>  <Endpoint result>
14.4

$$$$
>  <Compound>
COc1cc(C(=O)c2cc3c(ccc4ccccc43)[nH]2)ccc1O [ACT-PFK-108]

>  <Endpoint result>
37.6

$$$$
>  <Compound>
COc1ccccc1C(=O)c1cc2c(ccc3ccccc32)[nH]1 [ACT-PFK-098]

>  <Endpoint result>
30.2

$$$$
>  <Compound>
Nc1ccc(C(=O)c2cc3c(ccc4ccccc43)[nH]2)cc1 [ACT-PFK-112]

>  <Endpoint result>
18.6

$$$$

I: O=C(c1ccncc1)c1cc2c(ccc3ccccc32)[nH]1 [ACT-PFK-095]
II: COc1cccc(C(=O)c2cc3c(ccc4ccccc43)[nH]2)c1 [ACT-PFK-096]
III: COc1cccc(C(=O)c2cc3c(cc(F)c4ccccc43)[nH]2)c1 [ACT-PFK-116]
Rank order required: solubility at 1 h, descending. Output spec: a listing of the labels in the requested order.
III, I, II

* * *

Test protocol: Microsomal stability in human liver microsomes
Assay type: in vitro ADME
Settings: 60 min incubation, 1.0 mg/ml microsomal protein, 1 mM NADPH, 37° C.
Observed property: HLM, Mean metabolized (%)

Worked cases, answers included:
>  <Molecule>
O=C(c1ccncc1)c1cc2c(ccc3ccccc32)[nH]1

>  <Endpoint result>
26

$$$$
>  <Molecule>
COc1cc(C(=O)c2cc3c(ccc4ccccc43)[nH]2)ccc1O

>  <Endpoint result>
73.3

$$$$

I: Nc1ccc(C(=O)c2cc3c(ccc4ccccc43)[nH]2)cc1
II: COc1cccc(C(=O)c2cc3c(cc(F)c4ccccc43)[nH]2)c1
III: O=C(c1ccncc1)c1cc2c(cc(F)c3ccccc32)[nH]1
Sequence the entries by HLM, Mean metabolized (%), beginning with the highest number. List the labels in the requested order.
I, II, III
(I: 82.7%, II: 45.8%, III: 22.2%)

1: O=C(c1ccccc1)c1cc2c(ccc3ccccc32)[nH]1 [ACT-PFK-065, (3H-Benzo[e]indol-2-yl)-phenyl-methanone]
2: O=C(c1ccnc(Cl)c1)c1cc2c(ccc3ccccc32)[nH]1
Between the entries labeled 1 and 2 , whose measured HLM, Mean metabolized (%) is lower? // caller expects the label of the chosen entry
2

* * *

System: U937
Test protocol: Cancer cell proliferation, Alamar Blue assay, 72 hours
Format: cell-based
Settings: Homo sapiens, U-937
Experimental: The ability of the compounds described herein to kill or inhibit the proliferation of cancer cells was measured using either the MTT assay, or the Alamar Blue assay, or the Cell Titer Glow® assay using 48 or 72 hours exposure. […] The procedures are briefly described below. Cells of the desired tumor cell line were plated at 2×10^5 cells/ml in 96 well plates. Twice the indicated concentrations of the compounds of the invention were added to cells the following day in an equal volume of media. […]
pIC50: −log10 of the molar value.
Observed property: pIC50

The examples below pair each entry with its known result.
>  <Molecule>
COc1cc(C(=O)c2cc3c(ccc4ccccc43)[nH]2)ccc1O

>  <Observed property>
pIC50

>  <Endpoint result>
6.69

$$$$
>  <Molecule>
O=C(c1ccncc1)c1cc2c(ccc3ccccc32)[nH]1

>  <Observed property>
pIC50

>  <Endpoint result>
7.30

$$$$
>  <Molecule>
O=C(c1ccccc1)c1cc2c(ccc3ccccc32)[nH]1 [ACT-PFK-065, (3H-Benzo[e]indol-2-yl)-phenyl-methanone]

>  <Observed property>
pIC50

>  <Endpoint result>
6.78

$$$$

A: COc1cc(C(=O)c2cc3c(ccc4ccccc43)[nH]2)ccn1
B: O=C(c1ccccc1)c1cc2c3c(ccc2[nH]1)CCCC3
Consider A and B . Which of these has its pIC50 at a higher number? Use the label to indicate which entry you chose.
A

P: COc1cccc(C(=O)c2cc3c(ccc4ccccc43)[nH]2)c1
Q: O=C(c1ccncc1)c1cc2c(cc(F)c3ccccc32)[nH]1
R: COc1cccc(C(=O)c2cc3c(cc(F)c4ccccc43)[nH]2)c1
Rank items: key pIC50, increasing. Quick reminder: the answer is the labels in the order asked.
Q, R, P
(Q: 7.02, R: 7.52, P: 7.85)

1: COc1cc(C(=O)c2cc3c(cc(F)c4ccccc43)[nH]2)ccc1O
2: Nc1ccc(C(=O)c2cc3c(ccc4ccccc43)[nH]2)cc1
Could you determine which record has the numerically smaller pIC50? Candidates: 1 and 2 Give the label of your selection.
2

* * *

Test protocol: Pharmacokinetics in mice
Format: in vivo, Balbc mice
Settings: mouse, plasma; IV 10 mg/kg, male Balbc mice
Procedure: The pharmacokinetic parameters for several compounds were determined in mice following IV (intravenous), IP (intraperitoneal), or PO (per os) administration, as well as in rats and dogs. A typical study design includes six Balbc male mice 7 to 8 weeks old. For instance, a dose of 10 mg/kg was administered IV using a 5% DMS0/90% Captisol (20% in water) solution or other pharmaceutically acceptable parenteral and oral formulations. […] Plasma samples were extracted and analyzed using an LC-MS/MS method. […]
Observed property: Cmax (ng/mL)
Give just the number in ng/mL; leave the unit off.

Please look up its Cmax: O=C(c1ccccc1)c1cc2c(ccc3ccccc32)[nH]1 [ACT-PFK-065, (3H-Benzo[e]indol-2-yl)-phenyl-methanone]
4110

* * *

System: H22
Test protocol: Cell proliferation, MTT assay, 48 hours
Type: cell-based
Settings: Mus musculus
Procedure: The ability of the compounds described herein to kill or inhibit the proliferation of cancer cells was measured using either the MTT assay, or the Alamar Blue assay, or the Cell Titer Glow® assay using 48 or 72 hours exposure. […] The procedures are briefly described below. Cells of the desired tumor cell line were plated at 2×10^5 cells/ml in 96 well plates. Twice the indicated concentrations of the compounds of the invention were added to cells the following day in an equal volume of media. […]
Observed property: pIC50
Note on units: pIC50 is unitless, being -log10 of a concentration expressed in mol/L.

Item Nc1ccc(C(=O)c2cc3c(ccc4ccccc43)[nH]2)cc1 [ACT-PFK-112] with H22 - pIC50?
6.29

* * *

Test protocol: Solubility in solvents and excipients, 1 hour at room temperature, HPLC
Type: physicochemical
Settings: aqueous with cosolvent or surfactant or cyclodextrin, thermodynamic from solid; Cre:EtOH:Saline 5:5:90 mixture, 1 hour at room temperature; read-out: Solubility Cre:EtOH:Saline
Observed property: solubility at 1 h (µg/mL)

I: O=C(c1ccncc1)c1cc2c(ccc3ccccc32)[nH]1 [ACT-PFK-095]
II: COc1cccc(C(=O)c2cc3c(ccc4ccccc43)[nH]2)c1 [ACT-PFK-096]
III: Nc1ccc(C(=O)c2cc3c(ccc4ccccc43)[nH]2)cc1 [ACT-PFK-112]
IV: COc1cccc(C(=O)c2cc3c(cc(F)c4ccccc43)[nH]2)c1 [ACT-PFK-116]
Can you order these entries from above by solubility at 1 h? Start with the largest number and work down. Kindly provide the labels arranged according to the requested ordering.
III, II, IV, I
(III: 3700 µg/mL, II: 1700 µg/mL, IV: 700 µg/mL, I: 300 µg/mL)

A: COc1cc(C(=O)c2cc3c(cc(F)c4ccccc43)[nH]2)ccc1O [ACT-PFK-119]
B: O=C(c1ccncc1)c1cc2c(cc(F)c3ccccc32)[nH]1 [ACT-PFK-118]
Param metric = solubility at 1 h; output whichever of A , B has the minimum value. Write down the label of the entry you select.
B

A: COc1ccccc1C(=O)c1cc2c(ccc3ccccc32)[nH]1 [ACT-PFK-098]
B: COc1cc(C(=O)c2cc3c(ccc4ccccc43)[nH]2)ccc1O [ACT-PFK-108]
From the recorded data, which exceeds the other in solubility at 1 h: A or B ? // return label of chosen record
B
(B: 4800 µg/mL, A: 2400 µg/mL)

* * *

Test system: A549
Test protocol: Cell proliferation, MTT assay, 48 hours
Type: cell-based
Settings: Homo sapiens
Observed property: IC50 (nM)
All answers are understood in nM, so give the number only.

Please look up its IC50: Nc1ccc(C(=O)c2cc3c(ccc4ccccc43)[nH]2)cc1 [ACT-PFK-112]
822

* * *

Test protocol: Cell permeability in Caco2 monolayers
Type: in vitro ADME
Settings: human, Caco-2, Caco2 cells, basal to apical, pH 7.4
Observed property: Papp B→A at 2 h (×10⁻⁶ cm/s)

1: O=C(c1ccncc1)c1cc2c(ccc3ccccc32)[nH]1
2: O=C(c1ccccc1)c1cc2c(ccc3ccccc32)[nH]1 [ACT-PFK-065, (3H-Benzo[e]indol-2-yl)-phenyl-methanone]
Parameter check: reported Papp B→A at 2 h is higher for which label, 1 or 2 ? Pick one and reply with its label.
1
(1: 8.9 ×10⁻⁶ cm/s, 2: 5.9 ×10⁻⁶ cm/s)
